Target: full-length human PLD1 (Homo sapiens (Human))
Experiment: Evaluation of human PLD1 enzyme inhibitory activity (Amplex Red / choline oxidase fluorescence)
Format: biochemical
Settings: column 1 of continuation tables 2-12 to 2-14; read-out: human PLD1 enzyme inhibitory activity IC50
Value Type: pIC50
API: returns pIC50 as number; meaning -log10 of concentration in mol/L.

Examples with answers:
[2H]C([2H])([2H])NC(=O)C(=O)N[C@@H](C)C[C@]1(OC)CC[C@@]2(CC1)OC(=O)NN=C2c1ccc(C#N)cc1Br ... 7.49
CNC(=O)C(=O)NC(C)C[C@H]1CC[C@@]2(CC1)OC(=O)NN=C2c1cc(C#N)ccc1Br (mixture of isomers) ... 6.85
[2H]C([2H])([2H])NC(=O)C(=O)N[C@@H](C)C[C@]1(OC)CC[C@@]2(CC1)OC(=O)NN=C2c1ccc(F)cc1Br ... 7.70
[2H]C([2H])([2H])NC(=O)C(=O)N[C@@H](C)C[C@]1(C#N)CC[C@@]2(CC1)OC(=O)NN=C2c1cc(OC(F)F)c(F)cc1Br ... 7.85
[2H]C([2H])([2H])NC(=O)C(=O)N[C@@H](C)C[C@]1(C#N)CC[C@@]2(CC1)OC(=O)NN=C2c1cccc(F)c1Br ... 7.80

Q: Look up pIC50 for this compound: [2H]C([2H])([2H])NC(=O)C(=O)N[C@@H](C)C[C@]1(C#N)CC[C@@]2(CC1)OC(=O)NN=C2c1cc(F)c(F)cc1Br
Ans: 7.77

Q: Look up pIC50 for this compound: [2H]C([2H])([2H])NC(=O)C(=O)N[C@@H](C)C[C@]1(OC)CC[C@@]2(CC1)OC(=O)NN=C2c1cc(F)ccc1Br
Ans: 7.82

Q: Look up pIC50 for this compound: [2H]C([2H])([2H])NC(=O)C(=O)N[C@@H](C)C[C@]1(C#N)CC[C@@]2(CC1)OC(=O)NN=C2c1ccc(F)cc1Br
Ans: 7.74

Q: Look up pIC50 for this compound: [2H]C([2H])([2H])NC(=O)C(=O)N[C@@H](C)C[C@]1(C#N)CC[C@@]2(CC1)OC(=O)NN=C2c1cc(OC(F)F)ccc1Br
Ans: 7.85

Q: Look up pIC50 for this compound: [2H]C([2H])([2H])NC(=O)C(=O)N[C@@H](C)C[C@]1(C#N)CC[C@@]2(CC1)OC(=O)NN=C2c1cc(OC(F)(F)F)ccc1Br
Ans: 7.96

Q: Look up pIC50 for this compound: [2H]C([2H])([2H])NC(=O)C(=O)N[C@@H](C)C[C@]1(C#N)CC[C@@]2(CC1)OC(=O)NN=C2c1cccc(C(F)(F)F)c1Br
Ans: 7.72

Q: Look up pIC50 for this compound: [2H]C([2H])([2H])NC(=O)C(=O)N[C@@H](C)C[C@]1(C#N)CC[C@@]2(CC1)OC(=O)NN=C2c1cc(F)ccc1Br
Ans: 7.85

Q: Look up pIC50 for this compound: [2H]C([2H])([2H])NC(=O)C(=O)N[C@@H](C)C[C@]1(OC)CC[C@@]2(CC1)OC(=O)NN=C2c1cccc(C(F)(F)F)c1Br
Ans: 7.60

###

Target: full-length human PLD2 (Homo sapiens (Human))
Sequence (O14939 whole entry): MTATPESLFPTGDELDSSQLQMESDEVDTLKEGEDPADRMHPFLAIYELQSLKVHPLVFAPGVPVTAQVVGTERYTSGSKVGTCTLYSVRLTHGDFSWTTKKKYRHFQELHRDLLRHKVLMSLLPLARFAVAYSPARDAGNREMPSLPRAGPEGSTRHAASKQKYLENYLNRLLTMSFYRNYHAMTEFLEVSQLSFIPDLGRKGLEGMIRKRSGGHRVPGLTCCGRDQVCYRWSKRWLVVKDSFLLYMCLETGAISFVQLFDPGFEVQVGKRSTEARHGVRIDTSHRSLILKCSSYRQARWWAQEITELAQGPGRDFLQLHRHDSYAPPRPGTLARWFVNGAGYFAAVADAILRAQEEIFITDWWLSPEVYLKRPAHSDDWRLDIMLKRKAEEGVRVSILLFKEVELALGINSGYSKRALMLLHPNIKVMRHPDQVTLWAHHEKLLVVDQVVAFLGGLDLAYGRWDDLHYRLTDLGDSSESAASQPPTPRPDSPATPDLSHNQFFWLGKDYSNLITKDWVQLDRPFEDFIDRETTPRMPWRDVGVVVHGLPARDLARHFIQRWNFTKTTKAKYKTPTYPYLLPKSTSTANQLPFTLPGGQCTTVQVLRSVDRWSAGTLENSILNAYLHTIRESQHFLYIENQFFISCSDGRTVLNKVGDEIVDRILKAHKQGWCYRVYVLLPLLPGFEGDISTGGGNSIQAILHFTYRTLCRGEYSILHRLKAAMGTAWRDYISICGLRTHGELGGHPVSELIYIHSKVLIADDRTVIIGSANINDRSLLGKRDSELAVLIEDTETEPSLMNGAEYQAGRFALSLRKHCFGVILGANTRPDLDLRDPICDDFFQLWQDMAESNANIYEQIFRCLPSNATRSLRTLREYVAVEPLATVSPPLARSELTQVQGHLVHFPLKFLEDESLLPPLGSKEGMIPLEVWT
Assay: Evaluation of human PLD2 enzyme inhibitory activity (Amplex Red / choline oxidase fluorescence)
Assay type: biochemical
Settings: full-length human PLD2 enzyme; read-out: PLD2 IC50
Value Type: pIC50
API: returns pIC50 as number; meaning -log10 of concentration in mol/L.

Examples with answers:
C[C@@H](C[C@H]1CC[C@]2(CC1)OC(=O)NN=C2c1nccn1CC1CC1)NC(=O)c1cc2ccccc2o1 ... 7.28
C[C@@H](C[C@H]1CC[C@]2(CC1)OC(=O)NN=C2c1cc(Cl)ccc1Cl)NC(=O)c1cc2ccccn2n1 ... 7.60
CC(=O)N[C@@H](C)C[C@H]1CC[C@]2(CC1)OC(=O)NN=C2c1ccc(OC(F)F)cc1Br ... 6.79

Q: Look up pIC50 for this molecule: CC(C)C(=O)N[C@@H](C)C[C@H]1CC[C@]2(CC1)OC(=O)NN=C2c1ccc(F)cc1Br
Ans: 5.42

Q: Look up pIC50 for this molecule: C[C@@H](CN1CCC2(CC1)OC(=O)NN=C2c1ccc(F)cc1Br)NC(=O)C(=O)NC12CC(C1)C2
Ans: 5.90

Q: Look up pIC50 for this molecule: C[C@@H](C[C@H]1CC[C@]2(CC1)OC(=O)NN=C2c1cccc(C#N)c1Br)NC(=O)C(=O)NC1CC1
Ans: 7.21

Q: Look up pIC50 for this molecule: Cc1cc(C(=O)N[C@@H](C)C[C@H]2CC[C@]3(CC2)OC(=O)NN=C3c2ccccc2OC(F)(F)F)[nH]n1
Ans: 7.00

Q: Look up pIC50 for this molecule: C[C@@H](C[C@H]1CC[C@]2(CC1)OC(=O)NN=C2c1cccc(C#N)c1Br)NC(=O)c1cnn(C)c1
Ans: 7.39

###

Biological target: full-length human PLD1 (Homo sapiens (Human), UniProt Q13393)
Sequence (Q13393 other isoform, or with tags, fused parts or gaps): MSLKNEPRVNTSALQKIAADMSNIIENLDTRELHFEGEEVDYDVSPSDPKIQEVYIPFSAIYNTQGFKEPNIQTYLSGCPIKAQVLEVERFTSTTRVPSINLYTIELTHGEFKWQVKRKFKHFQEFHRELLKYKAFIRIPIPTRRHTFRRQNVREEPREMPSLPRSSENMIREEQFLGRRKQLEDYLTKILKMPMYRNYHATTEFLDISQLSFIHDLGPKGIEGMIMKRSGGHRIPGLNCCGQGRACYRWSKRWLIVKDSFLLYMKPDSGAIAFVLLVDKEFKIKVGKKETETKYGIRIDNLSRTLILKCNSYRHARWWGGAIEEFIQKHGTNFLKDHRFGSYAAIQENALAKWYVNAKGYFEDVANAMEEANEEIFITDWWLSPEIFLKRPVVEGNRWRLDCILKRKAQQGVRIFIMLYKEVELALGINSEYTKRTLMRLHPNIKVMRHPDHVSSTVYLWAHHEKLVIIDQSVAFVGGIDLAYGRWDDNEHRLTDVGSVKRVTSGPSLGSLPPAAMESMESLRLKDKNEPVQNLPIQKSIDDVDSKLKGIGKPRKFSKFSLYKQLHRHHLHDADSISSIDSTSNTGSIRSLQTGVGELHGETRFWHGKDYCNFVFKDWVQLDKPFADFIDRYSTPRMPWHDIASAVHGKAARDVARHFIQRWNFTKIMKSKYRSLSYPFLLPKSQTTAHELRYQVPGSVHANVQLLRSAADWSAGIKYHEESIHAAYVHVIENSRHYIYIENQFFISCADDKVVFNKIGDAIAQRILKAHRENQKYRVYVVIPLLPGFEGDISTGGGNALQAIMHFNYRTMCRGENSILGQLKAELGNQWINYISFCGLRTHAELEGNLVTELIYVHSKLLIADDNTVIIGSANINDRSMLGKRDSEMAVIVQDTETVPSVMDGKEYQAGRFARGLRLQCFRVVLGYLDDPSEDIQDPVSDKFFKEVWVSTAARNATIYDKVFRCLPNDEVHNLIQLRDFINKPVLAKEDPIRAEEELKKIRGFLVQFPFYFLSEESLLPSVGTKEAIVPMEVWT
Assay: Evaluation of human PLD1 enzyme inhibitory activity (Amplex Red / choline oxidase fluorescence)
Type: biochemical
Details: full-length human PLD1 enzyme; read-out: PLD1 IC50
# maps each entry to its pIC50
API: returns pIC50 as number; meaning -log10 of concentration in mol/L.

Examples with answers:
CNC(=O)C(=O)N[C@@H](C)C[C@H]1CC[C@]2(CC1)OC(=O)NN=C2c1cnc(N2CCCC2)cc1C ... 7.72
C[C@@H](C[C@H]1CC[C@]2(CC1)OC(=O)NN=C2c1ccc(S(C)(=O)=O)cc1Br)NC(=O)c1cc2cc(F)ccc2[nH]1 ... 7.49
Cc1cc(C(=O)N[C@@H](C)CN2CCC3(CC2)OC(=O)NN=C3c2cc(Br)c(F)cc2Cl)[nH]n1 ... 7.72
C[C@@H](CN1CCC2(CC1)OC(=O)NN=C2c1ccc(F)cc1Cl)NC(=O)c1cc(C(F)(F)F)[nH]n1 ... 7.39
C[C@@H](C[C@H]1CC[C@]2(CC1)OC(=O)NN=C2c1ccc(F)cc1Br)NC(=O)CCS(C)(=O)=O ... 6.66
CNC(=O)C(=O)N[C@@H](C)C[C@H]1CC[C@]2(CC1)OC(=O)NN=C2c1ncccc1C ... 7.49
CNC(=O)C(=O)N[C@@H](C)[C@H](C)N1CCC2(CC1)OC(=O)NN=C2c1ccc(F)cc1Br ... 7.74
CNC(=O)C(=O)N[C@@H](C)C[C@H]1CC[C@]2(CC1)OC(=O)NN=C2c1cnc(C#N)cc1C ... 7.36

Q: // fetch full-length human PLD1 (Homo sapiens (Human), UniProt Q13393) pIC50 for C[C@@H](C[C@H]1CC[C@]2(CC1)OC(=O)NN=C2c1cccc(OC(F)F)c1Br)NC(=O)C(=O)NC1CC1
Ans: 7.82

Q: // fetch full-length human PLD1 (Homo sapiens (Human), UniProt Q13393) pIC50 for CNC(=O)C(=O)N[C@@H](C)CC1CCC2(CC1)OC(=O)NN=C2c1ccncc1C (mixture of isomers)
Ans: 7.40

Q: // fetch full-length human PLD1 (Homo sapiens (Human), UniProt Q13393) pIC50 for CNC(=O)C(=O)N[C@@H](C)CN1CCC2(CC1)OC(=O)NN=C2c1ccc(Br)cc1C(F)(F)F
Ans: 7.32

###

Target: full-length human PLD2 (Homo sapiens (Human))
Assay: Evaluation of human PLD2 enzyme inhibitory activity (Amplex Red / choline oxidase fluorescence)
Type: biochemical
Details: full-length human PLD2 enzyme; read-out: PLD2 IC50
pIC50: −log10 of the molar value.
Rule: T for pIC50 not less than 7, F for anything less.

# example entries with known answers
CNC(=O)C(=O)N[C@@H](C)C[C@H]1CC[C@]2(CC1)OC(=O)NN=C2c1cc(C(=O)NC(C)(C)C)ccc1Br [Example 299] ... T
C[C@@H](C[C@H]1CC[C@]2(CC1)OC(=O)NN=C2c1ccc(Br)cc1)NC(=O)c1cc2ccccc2o1 [Example 50] ... T
C[C@@H](C[C@H]1CC[C@]2(CC1)OC(=O)NN=C2c1ccc(F)cc1Br)NC(=O)C(F)Cl (mixture of isomers) [Example 278] ... F

Q: Hi team, for Cc1ccc(C(=O)N[C@@H](C)C[C@H]2CC[C@]3(CC2)OC(=O)NN=C3c2ccc(F)cc2Br)nn1 [Example 252] , is the recorded pIC50 at or above 7?
Ans: F

Q: Hi team, for C[C@@H](C[C@H]1CC[C@]2(CC1)OC(=O)NN=C2c1ccc(S(C)(=O)=O)cc1Cl)NC(=O)c1cc2ccccc2o1 [Example 53] , is the recorded pIC50 at or above 7?
Ans: T

Q: Hi team, for CNC(=O)C(=O)N[C@@H](C)C[C@H]1CC[C@]2(CC1)OC(=O)NN=C2c1cnc(N2CCC(F)(F)CC2)cc1Cl [Example 274] , is the recorded pIC50 at or above 7?
Ans: T
